Origin of values: ChEMBL document CHEMBL3244004

test system: Mus musculus; test: Toxicity in ip dosed C3H/DBA2F1 hybrid mouse allografted with mouse L1210 cells administered for 5 days measured up to 8 days; format: organism-based; conditions: in vivo
Would you mind telling me the reported LD10 of each entry?
# value in mg/kg; strip the unit string

Item CCCCS(=O)(=O)Nc1ccc(Nc2c3ccccc3nc3cc(NC(C)=O)ccc23)cc1 has what recorded LD10?
39

Now this one: Cc1cccc2c(Nc3ccc(CCC(=O)O)cc3)c3ccccc3nc12
32

Now this one: CS(=O)(=O)O.NC(=O)CCCCCCCCc1ccc(Nc2c3ccccc3nc3ccccc23)cc1
60

---

Would you mind telling me the reported Rm of each entry?
experiment: Logarithmic function of the retardation factor value of compound by reverse phase chromatography analysis; type: physicochemical
Number only, no unit.

Item NC(=O)CCc1ccc(Nc2c3ccccc3nc3ccccc23)cc1 has what recorded Rm?
-0.17

Now this one: CS(=O)(=O)O.NC(=O)Cc1ccc(Nc2c3ccccc3nc3ccccc23)cc1
-0.33

Now this one: CC(=O)Nc1ccc2c(Nc3ccc(CCCCCC(=O)O)cc3)c3ccccc3nc2c1.Cl
0.54

Now this one: Cl.O=C(O)CCCCCCCc1ccc(Nc2c3ccccc3nc3ccccc23)cc1
0.82

Now this one: Cc1cccc2c(Nc3ccc(CC(=O)O)cc3)c3ccccc3nc12
0.3

Now this one: Cl.O=C(O)CCCCCCCCCc1ccc(Nc2c3ccccc3nc3ccccc23)cc1
0.86

Now this one: O=C(O)CCCCCCc1ccc(Nc2c3ccccc3nc3ccccc23)cc1
0.79

Now this one: CCCCS(=O)(=O)Nc1ccc(Nc2c3ccccc3nc3cc(NC(C)=O)ccc23)cc1
0.46

Now this one: CNc1ccc2c(Nc3ccc(OCCCC(=O)O)cc3)c3ccccc3nc2c1.Cl
0.61

Now this one: CC(=O)Nc1ccc2c(Nc3ccc(C(=O)O)cc3)c3ccccc3nc2c1.Cl
0.15

Now this one: CS(=O)(=O)O.NC(=O)CCCCc1ccc(Nc2c3ccccc3nc3ccccc23)cc1
0.25

Now this one: CCCCCS(=O)(=O)Nc1ccc(Nc2c3ccccc3nc3ccccc23)cc1.Cl
0.66

Now this one: CCCS(=O)(=O)Nc1ccc(Nc2c3ccccc3nc3cc(NC(C)=O)ccc23)cc1
0.3

Now this one: NC(=O)c1ccc(Nc2c3ccccc3nc3ccccc23)cc1
-0.25

Now this one: O=C(O)CCCCc1ccc(Nc2c3ccccc3nc3ccccc23)cc1
0.64

Now this one: CS(=O)(=O)Nc1ccc(Nc2c3ccccc3nc3ccccc23)cc1
0

Now this one: CCC(=O)Nc1ccc2c(Nc3ccc(NS(C)(=O)=O)cc3)c3ccccc3nc2c1
0.15

Now this one: NC(=O)CCCCCCc1ccc(Nc2c3ccccc3nc3ccccc23)cc1
0.58

Now this one: CC(=O)Nc1ccc2c(Nc3ccc(NS(C)(=O)=O)cc3)c3ccccc3nc2c1
-0.12

Now this one: Cl.O=S(=O)(Cc1ccc(Nc2c3ccccc3nc3ccccc23)cc1)Nc1ccccn1
-0.04

Now this one: CS(=O)(=O)O.NC(=O)CCCCCCCCc1ccc(Nc2c3ccccc3nc3ccccc23)cc1
0.77

---

Would you mind telling me the reported LD10 of each entry?
system: Mus musculus; test: Toxicity in ip dosed C3H/DBA2F1 hybrid mouse allografted with mouse L1210 cells administered for 5 days measured up to 8 days; type: organism-based; settings: in vivo
# value in mg/kg; strip the unit string

Item CS(=O)(=O)O.NC(=O)Cc1ccc(Nc2c3ccccc3nc3ccccc23)cc1 has what recorded LD10?
55

Now this one: CCCCCCS(=O)(=O)Nc1ccc(Nc2c3ccccc3nc3ccccc23)cc1.Cl
120

Now this one: O=C(O)CCCCCCc1ccc(Nc2c3ccccc3nc3ccccc23)cc1
90

Now this one: NC(=O)CCc1ccc(Nc2c3ccccc3nc3ccccc23)cc1
75

Now this one: CCc1cccc2c(Nc3ccc(CCC(=O)O)cc3)c3ccccc3nc12.Cl
200

Now this one: CCCCCCS(=O)(=O)Nc1ccc(Nc2c3ccccc3nc3cc(NC(C)=O)ccc23)cc1
21

Now this one: O=C(O)Cc1ccc(Nc2c3ccccc3nc3ccccc23)cc1
450

---

Would you mind telling me the reported log(ILSmax) of each entry?
system: L1210; test: Antitumor activity against mouse L1210 cells allografted in C3H/DBA2F1 hybrid mouse assessed as maximum increase of host life span administered as ip for 5 days relative to control; type: functional
Number only, no unit.

# query: log(ILSmax) | item Cl.O=C(O)CCCc1ccc(Nc2c3ccccc3nc3ccccc23)cc1 | system: L1210
2.33

Now this one: Cl.O=C(O)CCc1ccc(Nc2c3ccccc3nc3ccccc23)cc1
2.21

Now this one: Cl.O=S(=O)(Cc1ccc(Nc2c3ccccc3nc3ccccc23)cc1)Nc1ccccn1
2

Now this one: NS(=O)(=O)CCc1ccc(Nc2c3ccccc3nc3ccccc23)cc1
1.83

Now this one: CS(=O)(=O)O.NC(=O)CCCCCCCCc1ccc(Nc2c3ccccc3nc3ccccc23)cc1
1.4

Now this one: CCCCCS(=O)(=O)Nc1ccc(Nc2c3ccccc3nc3cc(NC(C)=O)ccc23)cc1
1.78

Now this one: NC(=O)CCCc1ccc(Nc2c3ccccc3nc3ccccc23)cc1
2.09

Now this one: CCS(=O)(=O)Nc1ccc(Nc2c3ccccc3nc3cc(NC(C)=O)ccc23)cc1
2.06

Now this one: Cl.NS(=O)(=O)Cc1ccc(Nc2c3ccccc3nc3ccccc23)cc1
1.72

Now this one: Cl.O=C(O)CCCCCc1ccc(Nc2c3ccccc3nc3ccccc23)cc1
2.3

Now this one: CS(=O)(=O)O.NC(=O)CCCCCCCc1ccc(Nc2c3ccccc3nc3ccccc23)cc1
1.72

Now this one: O=C(O)Cc1ccc(Nc2c3ccccc3nc3ccccc23)cc1
1.34

Now this one: O=C(O)CCCCCCc1ccc(Nc2c3ccccc3nc3ccccc23)cc1
1.87

Now this one: O=C(O)CCCCc1ccc(Nc2c3ccccc3nc3ccccc23)cc1
2.27

Now this one: NC(=O)CCc1ccc(Nc2c3ccccc3nc3ccccc23)cc1
1.92

Now this one: CCc1cccc2c(Nc3ccc(CCC(=O)O)cc3)c3ccccc3nc12.Cl
2.11

Now this one: NC(=O)CCCCCCc1ccc(Nc2c3ccccc3nc3ccccc23)cc1
1.85

---

Would you mind telling me the reported LD10 of each entry?
test system: Mus musculus; assay: Toxicity in ip dosed C3H/DBA2F1 hybrid mouse allografted with mouse L1210 cells administered for 5 days measured up to 8 days; format: organism-based; details: in vivo
# value in mg/kg; strip the unit string

Item Cl.O=C(O)CCCCCCCCc1ccc(Nc2c3ccccc3nc3ccccc23)cc1 has what recorded LD10?
100

Now this one: Cl.O=C(O)CCCCCc1ccc(Nc2c3ccccc3nc3ccccc23)cc1
150

Now this one: Cl.O=S(=O)(Cc1ccc(Nc2c3ccccc3nc3ccccc23)cc1)Nc1ccccn1
370

Now this one: NC(=O)c1ccc(Nc2c3ccccc3nc3ccccc23)cc1
182

---

test: Logarithmic function of the retardation factor value of compound by reverse phase chromatography analysis; assay type: physicochemical
Would you mind telling me the reported Rm of each entry?
Number only, no unit.

Item CN(C)C(=O)CCCc1ccc(Nc2c3ccccc3nc3ccccc23)cc1.Cl has what recorded Rm?
0.68

Now this one: Cl.O=C(O)CCCc1ccc(Nc2c3ccccc3nc3ccccc23)cc1
0.59

Now this one: CCS(=O)(=O)Nc1ccc(Nc2c3ccccc3nc3ccccc23)cc1
0.25

Now this one: CNc1ccc2c(Nc3ccc(NS(C)(=O)=O)cc3)c3ccccc3nc2c1.Cl
-0.01

---

tested on: Mus musculus; assay: Toxicity in ip dosed C3H/DBA2F1 hybrid mouse allografted with mouse L1210 cells administered for 5 days measured up to 8 days; assay type: organism-based; details: in vivo
MEASUREMENT LABEL: LD10

Item CNc1ccc2c(Nc3ccc(OCCCC(=O)O)cc3)c3ccccc3nc2c1.Cl has what recorded LD10?
> 500 mg/kg

Now this one: CC(=O)Nc1ccc2c(Nc3ccc(C(=O)O)cc3)c3ccccc3nc2c1.Cl
> 500 mg/kg

Now this one: CC(=O)Nc1ccc2c(Nc3ccc(CCCCCC(=O)O)cc3)c3ccccc3nc2c1.Cl
> 500 mg/kg
